Target System: UniProtKB P29274
Sequence (P29274 whole entry): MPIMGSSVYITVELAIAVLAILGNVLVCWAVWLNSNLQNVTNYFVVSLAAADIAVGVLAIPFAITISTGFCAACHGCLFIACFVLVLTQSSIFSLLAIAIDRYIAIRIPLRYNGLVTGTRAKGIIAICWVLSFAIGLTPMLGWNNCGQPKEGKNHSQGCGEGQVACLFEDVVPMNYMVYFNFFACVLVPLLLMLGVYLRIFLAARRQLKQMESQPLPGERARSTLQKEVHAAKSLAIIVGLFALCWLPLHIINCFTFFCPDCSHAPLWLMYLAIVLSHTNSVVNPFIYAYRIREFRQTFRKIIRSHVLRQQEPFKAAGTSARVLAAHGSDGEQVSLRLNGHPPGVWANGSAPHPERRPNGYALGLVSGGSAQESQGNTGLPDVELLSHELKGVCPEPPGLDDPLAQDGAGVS
Test Details: Adenosine A2a receptor functional assay (antagonist mode, cAMP-inducible beta-galactosidase reporter, CHO-K1 cells, 50 nM NECA)
Condition Set: read-out: Ki A2a antagonist function
Parameter Measured: pKi
# log scale: pKi equals minus log10 of the concentration in mol/L

Sample answers from the record:
# Compound, Parameter Measured, Recorded Value
measured = [
    ("C[C@@H](CN(C)C)OC(=O)c1c(N)nc(-c2ccco2)c2c1-c1ccccc1C2=O", "pKi", 8.00),
    ("Nc1nc(-c2ccco2)c2c(n1)-c1cccc(N)c1C2=O", "pKi", 9.90),
    ("CC(O)C(O)c1cccc2c1-c1nc(N)nc(-c3ccccc3)c1C2=O (stereo not shown)", "pKi", 9.47),
]

Requested read-out pKi, target or system UniProtKB P29274, entry Nc1nc(-c2ccccc2)c2c(n1)-c1cccc(CN3CCN(CCO)CC3)c1C2=O
7.93
